The entries below are paired with their reported IC50.
Tested on: PDC 521955-158-R6-J3 spheroids, viability
ASSAY_COMMENT: Anticancer human tumor 521955-158-R6-J3-PDC patient-derived pancreatic carcinoma cell line growth inhibition [TAK]
DETAILS: curve of first compound; second compound 0.949 µM; spheroids with HUVEC and MSC
I only need the number, in nM, no unit after it.

CC(=O)Nc1cccc(-n2c(=O)n(C3CC3)c(=O)c3c(Nc4ccc(I)cc4F)n(C)c(=O)c(C)c32)c1 + CC(C)NCC(C(=O)N1CCN(c2ncnc3c2C(C)CC3O)CC1)c1ccc(Cl)cc1 : 2.58
CC(C)CC(NC(=O)C(Cc1ccccc1)NC(=O)c1cnccn1)B(O)O (stereo not given) + CC(C)NCC(C(=O)N1CCN(c2ncnc3c2C(C)CC3O)CC1)c1ccc(Cl)cc1 : 5.82

Alright, here's another molecule for you.
IC50 for PDC 521955-158-R6-J3 spheroids, viability with input CC(C)n1nc(-c2ccc3oc(N)nc3c2)c2c(N)ncnc21 + CC(C)NCC(C(=O)N1CCN(c2ncnc3c2C(C)CC3O)CC1)c1ccc(Cl)cc1 equals 49.5

====

Test system: PDC 521955-158-R6-J3 spheroids, viability
ASSAY_COMMENT: Anticancer human tumor 521955-158-R6-J3-PDC cell line growth inhibition [TAK];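 further: spheroids exposed to drugs for 7 days before readout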;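 on viability, T/C: 100% = DMSO vehicle control viability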
DETAILS: second compound 3 µM; first compound 0.316 µM; stronger effect = lower value; spheroids with HUVEC and MSC
The entries below are paired with their reported viability, T/C.
I only need the number, in %, no unit after it.

Solved cases (3 shown):
CC(C)(C)c1nc(-c2cccc(NS(=O)(=O)c3c(F)cccc3F)c2F)c(-c2ccnc(N)n2)s1 + CC(C)NCC(C(=O)N1CCN(c2ncnc3c2C(C)CC3O)CC1)c1ccc(Cl)cc1 : 117
Cc1nc(NC(=O)N2CCCC2C(N)=O)sc1-c1ccnc(C(C)(C)C(F)(F)F)c1 (centres undefined) + CC(C)NCC(C(=O)N1CCN(c2ncnc3c2C(C)CC3O)CC1)c1ccc(Cl)cc1 : 58.8
COc1c(OCCCN2CCOCC2)ccc2c3n(c(=NC(=O)c4cnc(N)nc4)nc12)CCN3 + CC(C)NCC(C(=O)N1CCN(c2ncnc3c2C(C)CC3O)CC1)c1ccc(Cl)cc1 : 25.7

For reference, reported viability, T/C for CCCS(=O)(=O)Nc1ccc(F)c(C(=O)c2c[nH]c3ncc(-c4ccc(Cl)cc4)cc23)c1F + CC(C)NCC(C(=O)N1CCN(c2ncnc3c2C(C)CC3O)CC1)c1ccc(Cl)cc1 stands at 93.3

====

System: PDC 521955-158-R6-J3 spheroids, viability
ASSAY_COMMENT: Anticancer human tumor 521955-158-R6-J3-PDC cell line growth inhibition [TAK];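 further: spheroids exposed to drugs for 7 days before readout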
DETAILS: curve of first compound; second compound 3 µM; spheroids with HUVEC and MSC
Description: Combinatorial screen of targeted agents with TAK-243 and ipatasertib in multi-cell type tumor spheroids […] Compounds. […] If the clinical Cmax for an agent had not been determined, the highest concentration tested was 10 microM. NCI60 Cell Culture. […] The optimal seeding densities for each of the cell lines at each time point assessed were determined prior to performing the concentration response studies. […]
The label 1 is reserved for IC50 strictly under 300 nM; 0 covers values equal to or above it.

Completed entries (count: 5):
Cn1cnc2c(F)c(Nc3ccc(Br)cc3Cl)c(C(=O)NOCCO)cc21 + CC(C)NCC(C(=O)N1CCN(c2ncnc3c2C(C)CC3O)CC1)c1ccc(Cl)cc1 : 0
Cc1nc(NC(=O)N2CCCC2C(N)=O)sc1-c1ccnc(C(C)(C)C(F)(F)F)c1 (stereo not given) + CC(C)NCC(C(=O)N1CCN(c2ncnc3c2C(C)CC3O)CC1)c1ccc(Cl)cc1 : 0
CC(C)(C)c1nc(-c2cccc(NS(=O)(=O)c3c(F)cccc3F)c2F)c(-c2ccnc(N)n2)s1 + CC(C)NCC(C(=O)N1CCN(c2ncnc3c2C(C)CC3O)CC1)c1ccc(Cl)cc1 : 0
CC(=O)Nc1cccc(-n2c(=O)n(C3CC3)c(=O)c3c(Nc4ccc(I)cc4F)n(C)c(=O)c(C)c32)c1 + CC(C)NCC(C(=O)N1CCN(c2ncnc3c2C(C)CC3O)CC1)c1ccc(Cl)cc1 : 1
COc1c(OCCCN2CCOCC2)ccc2c3n(c(=NC(=O)c4cnc(N)nc4)nc12)CCN3 + CC(C)NCC(C(=O)N1CCN(c2ncnc3c2C(C)CC3O)CC1)c1ccc(Cl)cc1 : 1

Now consider the entry below.
Is IC50 of CC(C)CC(NC(=O)CNC(=O)c1cc(Cl)ccc1Cl)B1OC(=O)CC(CC(=O)O)(C(=O)O)O1 (stereo not given) + CC(C)NCC(C(=O)N1CCN(c2ncnc3c2C(C)CC3O)CC1)c1ccc(Cl)cc1 strictly below 300 nM? 1

====

Test system: PDC 521955-158-R6-J3 spheroids, viability
ASSAY_COMMENT: Anticancer human tumor 521955-158-R6-J3-PDC cell line growth inhibition [TAK];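 further: spheroids exposed to drugs for 7 days before readout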;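 on viability, T/C: 100% = DMSO vehicle control viability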
DETAILS: second compound 0.949 µM; first compound 0.00316 µM; stronger effect = lower value; spheroids with HUVEC and MSC
ENDPOINT: viability, T/C (%)
I only need the number, in %, no unit after it.

COC1CC2CCC(C)C(O)(O2)C(=O)C(=O)N2CCCCC2C(=O)OC(C(C)CC2CCC(OCCO)C(OC)C2)CC(=O)C(C)C=C(C)C(O)C(OC)C(=O)C(C)CC(C)C=CC=CC=C1C (stereo not given) + CC(C)NCC(C(=O)N1CCN(c2ncnc3c2C(C)CC3O)CC1)c1ccc(Cl)cc1 : 99.1
CC(C)CC(NC(=O)CNC(=O)c1cc(Cl)ccc1Cl)B1OC(=O)CC(CC(=O)O)(C(=O)O)O1 (stereo not given) + CC(C)NCC(C(=O)N1CCN(c2ncnc3c2C(C)CC3O)CC1)c1ccc(Cl)cc1 : 97.9
CC(C)CC(NC(=O)C(Cc1ccccc1)NC(=O)c1cnccn1)B(O)O (stereo not given) + CC(C)NCC(C(=O)N1CCN(c2ncnc3c2C(C)CC3O)CC1)c1ccc(Cl)cc1 : 109
COc1c(OCCCN2CCOCC2)ccc2c3n(c(=NC(=O)c4cnc(N)nc4)nc12)CCN3 + CC(C)NCC(C(=O)N1CCN(c2ncnc3c2C(C)CC3O)CC1)c1ccc(Cl)cc1 : 52.4

Alright, here's another compound for you.
For reference, reported viability, T/C for CC(C)n1nc(-c2ccc3oc(N)nc3c2)c2c(N)ncnc21 + CC(C)NCC(C(=O)N1CCN(c2ncnc3c2C(C)CC3O)CC1)c1ccc(Cl)cc1 stands at 71.9

====

System: PDC 521955-158-R6-J3 spheroids, viability
ASSAY_COMMENT: Anticancer human tumor 521955-158-R6-J3-PDC cell line growth inhibition [TAK];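 further: spheroids exposed to drugs for 7 days before readout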
DETAILS: curve of first compound; second compound 30 µM; spheroids with HUVEC and MSC
The entries below are paired with their reported IC50.
I only need the number, in nM, no unit after it.

Cc1nc(NC(=O)N2CCCC2C(N)=O)sc1-c1ccnc(C(C)(C)C(F)(F)F)c1 (centres undefined) + CC(C)NCC(C(=O)N1CCN(c2ncnc3c2C(C)CC3O)CC1)c1ccc(Cl)cc1 : 481
CC(C)CC(NC(=O)CNC(=O)c1cc(Cl)ccc1Cl)B1OC(=O)CC(CC(=O)O)(C(=O)O)O1 (centres undefined) + CC(C)NCC(C(=O)N1CCN(c2ncnc3c2C(C)CC3O)CC1)c1ccc(Cl)cc1 : 33.6

Alright, here's another compound for you.
For reference, reported IC50 for CCCS(=O)(=O)Nc1ccc(F)c(C(=O)c2c[nH]c3ncc(-c4ccc(Cl)cc4)cc23)c1F + CC(C)NCC(C(=O)N1CCN(c2ncnc3c2C(C)CC3O)CC1)c1ccc(Cl)cc1 stands at 21800

====

Tested on: PDC 521955-158-R6-J3 spheroids, viability
ASSAY_COMMENT: Anticancer human tumor 521955-158-R6-J3-PDC cell line growth inhibition [TAK];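 further: spheroids exposed to drugs for 7 days before readout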;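 on viability, T/C: 100% = DMSO vehicle control viability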
DETAILS: second compound 0.949 µM; first compound 0.001 µM; stronger effect = lower value; spheroids with HUVEC and MSC
ENDPOINT: viability, T/C

Solved cases (2 shown):
COC1CC2CCC(C)C(O)(O2)C(=O)C(=O)N2CCCCC2C(=O)OC(C(C)CC2CCC(OCCO)C(OC)C2)CC(=O)C(C)C=C(C)C(O)C(OC)C(=O)C(C)CC(C)C=CC=CC=C1C (centres undefined) + CC(C)NCC(C(=O)N1CCN(c2ncnc3c2C(C)CC3O)CC1)c1ccc(Cl)cc1 : 89.6%
CC(C)n1nc(-c2ccc3oc(N)nc3c2)c2c(N)ncnc21 + CC(C)NCC(C(=O)N1CCN(c2ncnc3c2C(C)CC3O)CC1)c1ccc(Cl)cc1 : 74.7%

For reference, reported viability, T/C for CC(C)CC(NC(=O)CNC(=O)c1cc(Cl)ccc1Cl)B1OC(=O)CC(CC(=O)O)(C(=O)O)O1 (centres undefined) + CC(C)NCC(C(=O)N1CCN(c2ncnc3c2C(C)CC3O)CC1)c1ccc(Cl)cc1 stands at 93.8%

For reference, reported viability, T/C for CC(C)CC(NC(=O)C(Cc1ccccc1)NC(=O)c1cnccn1)B(O)O (centres undefined) + CC(C)NCC(C(=O)N1CCN(c2ncnc3c2C(C)CC3O)CC1)c1ccc(Cl)cc1 stands at 103%

Source listed as PubChem BioAssay AID2060350.
